- System: U2OS
- assay_remarks: cell viability relative to DMSO; higher = less toxic
- experimental_setup: 72 h; 1 nM
Reported cell viability values for the following compounds.
readout_name: cell viability (%)

INSERT INTO results (compound, target, readout_name, units, test_result) VALUES
  ('Cc1cc(/C=C/C#N)cc(C)c1Nc1ccnc(Nc2ccc(C#N)cc2)n1', 'U2OS', 'cell viability', '%', 94.8),
  ('C[C@]12CC[C@@H]3c4ccc(O)cc4C[C@@H](CCCCCCCCC[S+]([O-])CCCC(F)(F)C(F)(F)F)[C@H]3[C@@H]1CC[C@@H]2O (stereo not given in full)', 'U2OS', 'cell viability', '%', 105),
  ('O=C(O)C(=O)c1cn(Cc2ccccc2)c2ccc(-c3ccc(OC(F)(F)F)cc3)cc12', 'U2OS', 'cell viability', '%', 94.5),
  ('C[C@H]1O[C@@H](O[C@H]2CC[C@@]3(C)[C@H](CC[C@@H]4[C@@H]3C[C@@H](O)[C@]3(C)[C@@H](C5=CC(=O)OC5)CC[C@]43O)C2)C[C@H](O)[C@@H]1O[C@H]1C[C@H](O)[C@H](O[C@H]2C[C@H](O)[C@H](O[C@@H]3O[C@H](CO)[C@@H](O)[C@H](O)[C@H]3O)[C@@H](C)O2)[C@@H](C)O1 [deslanoside]', 'U2OS', 'cell viability', '%', 101),
  ('Oc1ccc(C2CNCCc3c2cc(O)c(O)c3Cl)cc1 (stereo not given)', 'U2OS', 'cell viability', '%', 103),
  ('O=C1CCC[C@@H]2[C@H]3CCCN4CCC[C@@H](CN12)[C@@H]34', 'U2OS', 'cell viability', '%', 96.1),
  ('CC[N+](CC)(CCCNC1=CC(=O)C(NCCC[N+](CC)(CC)Cc2ccccc2)=CC1=O)Cc1ccccc1 [benzoquinonium-dibromide]', 'U2OS', 'cell viability', '%', 94.6),
  ('CC(C)(C)c1cc(/C=C(\C#N)C(N)=S)cc(C(C)(C)C)c1O', 'U2OS', 'cell viability', '%', 98.9),
  ('COc1cccc(CCc2ccccc2OCC(CN(C)C)OC(=O)CCC(=O)O)c1 (stereo not given) [sarpogrelate]', 'U2OS', 'cell viability', '%', 100),
  ('CNCCCOc1cc(F)c(-c2c(Cl)nc3ncnn3c2N[C@@H](C)C(F)(F)F)c(F)c1', 'U2OS', 'cell viability', '%', 94.8),
  ('COc1ccc2c(NC(=O)Nc3cccc(C(F)(F)F)n3)ccnc2c1', 'U2OS', 'cell viability', '%', 102),
  ('COc1ccc(CN(C(=O)[C@@H](N)Cc2c(C)cc(C(N)=O)cc2C)[C@@H](C)c2ncc(-c3ccccc3)[nH]2)cc1C(=O)O', 'U2OS', 'cell viability', '%', 91.5),
  ('COc1cc(NS(C)(=O)=O)ccc1Nc1c2ccccc2nc2ccccc12', 'U2OS', 'cell viability', '%', 103),
  ('O=C(CN1C2=NCCN2c2ccccc21)c1ccc(-c2ccccc2)cc1', 'U2OS', 'cell viability', '%', 108),
  ('CC(C)(C)OC(=O)c1ncn2c1[C@@H]1CCCN1C(=O)c1c(Br)cccc1-2', 'U2OS', 'cell viability', '%', 98.2);

====

Below, each entry is listed with its recorded cell viability.
- System: Vero E6
- assay_remarks: cell viability relative to DMSO; higher = less toxic
- experimental_setup: 72 h; 1000 nM
readout_name: cell viability (%)

INSERT INTO measurements (molecule, target, test_result) VALUES
  ('CCCOC(=O)c1ccccc1 [propyl-benzoate]', 'Vero E6', 90.3),
  ('CO[C@H]1O[C@@H]2O[C@@]3(C)CC[C@H]4[C@H](C)CC[C@@H]([C@H]1C)[C@@]24OO3 [artemether]', 'Vero E6', 95.9),
  ('NNC(=O)CSc1nc2scc(-c3ccccc3)c2c(=O)n1-c1ccccc1', 'Vero E6', 90.5),
  ('CCC(C/C=C/c1ccccc1)(c1ccccc1)N(C)CC1CC1 (stereo unspecified) [igmesine]', 'Vero E6', 98.1),
  ('N[C@@H]1CCCN(c2c(/C=C3\SC(=O)NC3=O)cccc2-c2ccccc2)C1 [AZD1208]', 'Vero E6', 91.8),
  ('Nc1n[n+]([O-])c2ccccc2[n+]1[O-] [tirapazamine]', 'Vero E6', 95.6),
  ('CC(C)(C)NC[C@H](O)c1ccc(O)cc1Cl [meluadrine]', 'Vero E6', 99.9),
  ('COc1ccc2c(O[C@@H]3C[C@H]4C(=O)N[C@]5(C(=O)NS(=O)(=O)C6CC6)C[C@H]5/C=C\CCCCN(C)C(=O)[C@@H]4C3)cc(-c3nc(C(C)C)cs3)nc2c1C [simeprevir]', 'Vero E6', 101),
  ('COP(=O)(OC)OC(c1ccc(Cl)cc1)P(=O)(OC)OC (stereo unspecified) [mifobate]', 'Vero E6', 92.5),
  ('COc1cccc(OCCCN)c1-c1cc(Nc2cnc(C#N)cn2)n[nH]1', 'Vero E6', 61.1),
  ('CC(=O)Oc1c(C)cc(OCC(O)CNC(C)C)c(C)c1C (stereo unspecified) [metipranolol]', 'Vero E6', 85.8),
  ('CC(C)Cn1cnc2c1c(=O)n(C)c(=O)n2C [isbufylline]', 'Vero E6', 104),
  ('CN[C@@H](C)CCC=C(C)C [isometheptene-mucate]', 'Vero E6', 97),
  ('COC(=O)C1=C(C)NC(C)=C(C(=O)OCCN2CCN(C(c3ccccc3)c3ccccc3)CC2)C1c1cccc([N+](=O)[O-])c1 (stereo unspecified) [manidipine]', 'Vero E6', 100),
  ('N[C@@H](Cn1oc(=O)[nH]c1=O)C(=O)O [L-quisqualic-acid]', 'Vero E6', 96.8),
  ('Nc1ccc(C(=O)NCC(=O)O)cc1 [4-aminohippuric-acid]', 'Vero E6', 100),
  ('Cc1ccc2c(c1)C(=O)[C@]1(O)CCN(c3ccccc3)C1=N2 (racemic) [blebbistatin-(+/-)]', 'Vero E6', 95.5),
  ('COc1ccc(Cl)c(Nc2nc3ccccc3nc2NS(=O)(=O)c2cccc(NC(=O)C(C)(C)N)c2)c1 [pilaralisib]', 'Vero E6', 99.4),
  ('CCN1/C(=C/C(C)=O)Sc2ccc(OC)cc21 [TG-003]', 'Vero E6', 93.5),
  ('CCc1cc2c(cc1N1CCC(N3CCOCC3)CC1)C(C)(C)c1[nH]c3cc(C#N)ccc3c1C2=O [alectinib]', 'Vero E6', 93.7),
  ('CN1CCN(C2=Cc3ccccc3Oc3ccc(Cl)cc32)CC1 [2-CMDO]', 'Vero E6', 103),
  ('CCCN1CCC[C@@H]2Cc3nc(N)ncc3C[C@H]21 [quinelorane]', 'Vero E6', 93.2),
  ('COc1cc(C[C@@H](CO[C@@H]2O[C@H](CO)[C@@H](O)[C@H](O)[C@H]2O)[C@H](CO[C@@H]2O[C@H](CO)[C@@H](O)[C@H](O)[C@H]2O)Cc2ccc(O)c(OC)c2)ccc1O [secoisolariciresinol-diglucoside]', 'Vero E6', 97.8),
  ('COc1ccc(CCC(=O)Nc2nc3ccc(Cl)cc3s2)cc1OC', 'Vero E6', 101),
  ('CC(=O)N(CC(O)CO)c1c(I)c(C(=O)NCCO)c(I)c(C(=O)NCC(O)CO)c1I (stereo unspecified) [ioxilan]', 'Vero E6', 106),
  ('COc1ccc(NC(=O)c2ccc(C(=N)N(C)C)cc2)c(C(=O)Nc2ccc(Cl)cn2)c1 [betrixaban]', 'Vero E6', 96.4),
  ('NC(=O)c1ccc2[nH]ccc2c1 [SD-169]', 'Vero E6', 97.6),
  ('CC(C)(C)NCC(O)CSc1nc(-c2ccc(C(N)=O)s2)cs1 (stereo unspecified) [arotinolol]', 'Vero E6', 108),
  ('Cc1ccc(C23CNCC2C3)cc1 (stereo unspecified) [bicifadine]', 'Vero E6', 96.3),
  ('Cc1c(C)c2c(c(C)c1OC(=O)CCC(=O)O)CC[C@@](C)(CCC[C@H](C)CCC[C@H](C)CCCC(C)C)O2 [D-alpha-tocopheryl-succinate]', 'Vero E6', 102),
  ('O=C(O)c1c(Cl)c(Cl)c(Cl)c(Cl)c1-c1c2cc(I)c(=O)c(I)c-2oc2c(I)c(O)c(I)cc12 [rose-bengal]', 'Vero E6', 90.5),
  ('Cc1cnc(CNC(=O)c2c(=O)c3ccc(N4CCCN(C)CC4)nc3n3c2sc2ccccc23)cn1 [CX-5461]', 'Vero E6', 84.2),
  ('CCOC(=O)Nc1cc2c(c(N)n1)N=C(c1ccccc1)[C@H](C)N2 [mivobulin]', 'Vero E6', 9.9),
  ('CC(C)[C@](O)(c1ccc2cc(OC(F)F)c(OC(F)F)cc2c1)c1c[nH]nn1 [VT-464]', 'Vero E6', 98.2),
  ('O=c1[nH]ccc2cc(OC3CCNCC3)ccc12', 'Vero E6', 100),
  ('NC(=O)C[C@H](N)C(=O)O [L-asparagine]', 'Vero E6', 101);
